Test system: human hepatoma cell line Hep-G2
protocol_notes: Cytotoxicity towards tumour cells in vitro (Cell Titer 96 formazane colorimetric assay)
Type: cell-based
conditions: 10^−6 M, 48 h, percentage inhibition of the formation of formazane relative to the control
Cytotoxicity at 10^−6 M values for the compounds below.

| chemical_smiles | Cytotoxicity at 10^−6 M [%] |
| --- | --- |
| CC(=O)N[C@H](Cc1ccc2ccccc2c1)C(=O)Nc1ccc(C(=O)NO)cc1 | 10.6 |
| O=C(NO)c1ccc(NC(=O)[C@H](Cc2cccc(F)c2)NC(=O)c2ccc3c(c2)OCO3)cc1 | 12.9 |
| O=C(NO)c1ccc(NC(=O)[C@@H](Cc2ccc3ccccc3c2)NC(=O)c2cncc(Br)c2)cc1 | 15.9 |
| O=C(NO)c1ccc(NC(=O)[C@H](Cc2ccc3ccccc3c2)NC(=O)c2cncc(Br)c2)cc1 | 11.7 |
| O=C(NO)c1ccc(NC(=O)[C@H](Cc2ccccc2)NC(=O)c2ccccc2)cc1 | 31.2 |
| O=C(NO)c1ccc(NC(=O)[C@H](Cc2ccc(-c3ccccc3)cc2)NC(=O)c2ccc3ccccc3c2)cc1 | 20.4 |
| O=C(NO)c1ccc(NC(=O)[C@H](Cc2ccc(-c3ccccc3)cc2)NC(=O)c2ccccc2)cc1 | 22.7 |
| O=C(NO)c1ccc(NC(=O)[C@H](Cc2ccc(O)cc2)NC(=O)c2ccccc2)cc1 | 27.7 |
